- Test system: CP203
- assay-comment: qHTS profiling for inhibitors of Plasmodium falciparum proliferation (AID 504749); also: nearly all actives have a fitted effect of over 60% in size
- conditions-used: P. falciparum in erythrocytes, SYBR Green DNA, 72 h; series mostly up to 28.7 µM
Records with an inconclusive call do not appear. Calls of active or inactive are those of the source. Calls follow the shape of the dose curve; as a rule, active = well fitted inhibition curve with a large enough effect; inconclusive = small, poorly fitted or top-dose-only effect; inactive = flat fitted curve, though single readings scatter.
Respond with a class label; see active, inactive

// query Outcome? C=C1CC[C@H](O)C/C1=C/C=C1\CCC[C@]2(C)[C@@H]([C@H](C)CC[C@@H](O)C(C)(C)O)CC[C@@H]12
// result inactive

// query Request: CC[C@H](C)[C@H]1O[C@]2(CC[C@@H]1C)C[C@@H]1C[C@@H](C/C=C(\C)[C@H](O[C@@H]3C[C@H](OC)[C@H](O[C@@H]4C[C@H](OC)[C@@H](O)[C@H](C)O4)[C@H](C)O3)[C@@H](C)/C=C/C=C3\CO[C@@H]4[C@H](O)C(C)=C[C@@H](C(=O)O1)[C@]34O)O2
// result active

// query Request: CC(C)(C)C(=O)OCC(=O)C1CCC2C3CCC4=CC(=O)CCC4(C)C3CCC12C (stereo unspecified)
// result inactive

// query Request: CC(CCC(=O)O)C1CCC2C3C(=O)C[C@@H]4CC(=O)CC[C@@]4(C)C3CC(=O)[C@]12C (stereo partly specified)
// result inactive

// query Request: OCC1O[C@H](Oc2ccc(O)cc2)C(O)C(O)C1O (stereo partly specified)
// result inactive

// query Request: O=c1ccn(C2OC(COP(=O)(O)OC3C(CO)OC(n4ccc(=O)[nH]c4=O)C3O)C(O)C2O)c(=O)[nH]1 (stereo unspecified)
// result inactive
